Test details: NCI Yeast Anticancer Drug Screen. Data for the cln2 rad14 strain (AID 165);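 further: 0% = growth equal to vehicle treated cultures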
Cond: S. cerevisiae cln2 rad14 strain, at 5.0 µM (retest, dose inferred, filed as 0.5)
About 79,000 compounds went through this panel and 15% of them were active in at least one assay; those are over-represented in the sample as a whole. The source made the active and inactive calls. No stated cut-off is given here; in the data, active means growth inhibition above about 70%; inactive means the rest.
Outcome codes: yes (1) for active, no (0) for inactive

molecule=CC(=O)Oc1ccc(/C=C/[N+](=O)[O-])cc1 group_label="no (0)"
molecule="CC(=O)NC1C(O[C@H]2CC[C@@]3(C)C(CC[C@]4(C)C3CC=C3C5CC(C)(C)CC[C@]5(C(=O)O)CCC34C)C2(C)C)OC(CO)C(O)C1O (stereo partly specified)" group_label="yes (1)"
molecule="CC(CCc1ccccc1)NC(C)C(O)c1ccc(O)cc1 (stereo unspecified)" group_label="no (0)"
molecule=Oc1c(Cl)cc(Cl)cc1Cl.[Cu+2] group_label="no (0)"
molecule=CC(=O)[O-].CC(=O)[O-].O=C(N/N=C/c1cc(Cl)cc(Cl)c1[OH2+])c1ccncc1.[Co+2] group_label="no (0)"
molecule=COc1ccc(C[C@H]2NC[C@H](O)[C@H]2OC(C)=O)cc1 group_label="no (0)"
molecule=Nc1cc2[nH]cnc2c([Se])n1 group_label="no (0)"
molecule=CCCCCCCC(=O)[O][Hg][c]1ccccc1 group_label="yes (1)"
molecule=c1cs[c]([Hg][c]2cccs2)c1 group_label="yes (1)"
molecule=O=C(CCl)OCc1ccccc1 group_label="no (0)"
molecule=[Au+].[Au+].[Au+].[c-]1nccn1Cc1ccccc1.[c-]1nccn1Cc1ccccc1.[c-]1nccn1Cc1ccccc1 group_label="no (0)"
molecule="CC1=C[C@H]2O[C@H]3C[C@H]4OC(=O)/C=C\\C=C\\C(=O)OCC[C@@H](C)C(O)C(=O)OC[C@@]2(CC1)[C@@]4(C)[C@]31CO1 (stereo partly specified)" group_label="yes (1)"
molecule=CC(C)c1ccccc1OP(=S)(S)Oc1ccccc1C(C)C group_label="no (0)"
molecule=O=P(c1ccccc1)(c1ccccc1)c1ccccc1.[Cl][Sn]([c]1ccccc1)([c]1ccccc1)[c]1ccccc1 group_label="yes (1)"
molecule="O=c1cccc(C2CC(CO)C3CCCCN3C2)[nH]1 (stereo unspecified)" group_label="no (0)"
molecule=CCC[CH2][Sn]([CH2]CCC)([O]C(=O)CCC(C)=O)[O]C(=O)CCC(C)=O group_label="yes (1)"
molecule=CN(C)c1ccc(C2N(Cc3ccc(N(CCCl)CCCl)cc3)CCCN2Cc2ccc(N(CCCl)CCCl)cc2)cc1 group_label="no (0)"
molecule=O=C(CCl)Nc1ccc(Cl)cc1 group_label="no (0)"
molecule="CCCCCCCCN1CCN(CCCCCCCC)C2CCCCC21 (stereo unspecified) (tested in a mixture with another compound)" group_label="no (0)"
molecule=O=C(CBr)OC1CCCCC1 group_label="no (0)"
molecule=O=C(CF)CCl group_label="yes (1)"
molecule=COc1ccc2c(ccc3oc([N+](=O)[O-])cc32)c1 group_label="yes (1)"
molecule=O=[N+]([O-])c1ccc(CS(=O)(=O)C(Cl)(Cl)Cl)o1 group_label="no (0)"
molecule=CC(=O)[O-].CC(=O)[O-].O=C(N/N=C/c1cc(Cl)cc(Cl)c1[OH2+])c1ccncc1.[Zn+2] group_label="no (0)"
molecule=IC(I)=C(I)I group_label="yes (1)"
molecule=COc1ccc([As](O[As](c2ccc(OC)cc2)c2ccc(OC)cc2)c2ccc(OC)cc2)cc1 group_label="yes (1)"
molecule=O=[N+]([O-])c1cc[n+]([O-])c2ccccc12 group_label="yes (1)"
molecule=C(#C[PH+](c1ccccc1)c1ccccc1)c1ccccc1.C(#C[PH+](c1ccccc1)c1ccccc1)c1ccccc1.C(#C[PH+](c1ccccc1)c1ccccc1)c1ccccc1.[C-]#[O+].[C-]#[O+].[C-]#[O+].[Cr] group_label="no (0)"
molecule="O=C(c1ccccc1)c1c(CC(O)c2cccnc2)n(C(=O)c2ccccc2)c2ccccc12 (stereo unspecified)" group_label="no (0)"
molecule="CC(=O)O[C@H]1CCC2[C@@H]3CCC4Nc5oncc5C[C@]4(C)C3CC[C@@]21C (stereo partly specified)" group_label="no (0)"
molecule=CC1=C/C(=C2/N=C(N(C)C)SS2)C(C)=N1 group_label="no (0)"
molecule=CN(C)c1ccc(N=Nc2cccc(C(=O)[O-])c2)cc1.CN(C)c1ccc(N=Nc2cccc(C(=O)[O-])c2)cc1.NC1CCCCC1N.O=[N+]([O-])O.[Pt+4] group_label="no (0)"
molecule="NC(=O)/C=C/c1ccc([As]=O)cc1 (stereo unspecified)" group_label="no (0)"
molecule=NC(=O)c1ccc(C(=O)Nc2ccc([As](=O)(O)O)cc2)cc1 group_label="no (0)"
molecule=ClCCN1CCOCC1 group_label="yes (1)"
molecule="CC12CCCCC1C(=O)C2(Cl)Cl (stereo unspecified)" group_label="no (0)"
molecule=N#Cc1cc([N+](=O)[O-])c(Cl)c([N+](=O)[O-])c1 group_label="no (0)"
molecule=O=c1c2ccccc2[nH]c(=S)n1-c1cccc(C(F)(F)F)c1 group_label="no (0)"
molecule="CCOC(=O)[C]1([Pb]([CH3])([CH3])[CH3])N=NC(C(=O)OC)=C1C(=O)OC (stereo unspecified)" group_label="no (0)"
molecule=COC(=O)[CH2][Sn]([CH2]C(=O)OC)([CH]1CCCCC1)[CH]1CCCCC1 group_label="no (0)"
molecule=Cc1sc(Cc2ccccc2)nc1-c1ccc(N=Cc2ccc(N(CCCl)CCCl)cc2)cc1 group_label="no (0)"
